I'd be grateful if you could share measured Percent Control for these entries.
System: PIK3CG;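 further: KINOMEscan scanMAX binding as percent activity remaining versus control; lower means stronger binding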
assayContext: Compound Concentration (nM):1000
Numbers only, in %.

Reference set (5 entries):
compound | targetOrSystem | value
CN(C)c1cc2c(Nc3ccc4c(cnn4Cc4ccccc4)c3)ncnc2cn1 [GW282974X] | PIK3CG | 96
C[C@@H](Oc1cc(-n2cnc3ccc(OC4CCN(C)CC4)cc32)sc1C(N)=O)c1ccccc1Cl [GSK579289A] | PIK3CG | 11
Cl.O=C(Nc1ccc(Oc2ccc3[nH]c(NC(=O)c4ccccc4)nc3c2)cc1)Nc1cc(C(F)(F)F)ccc1F [GW709042A] | PIK3CG | 100
O=C1Nc2ccc(C(=O)c3ccco3)cc2C1=Cc1cc(Cl)c(O)c(Cl)c1 [GW406108X] | PIK3CG | 47
COc1cc(/C=N/Nc2ncnc3[nH]ncc23)ccc1O [GW578748X] | PIK3CG | 24

Hey, quick one: what's Percent Control for each of these?
1. COc1cc(N2CCN(C(C)C)CC2)ccc1Nc1nc(Nc2ccc(F)cc2C(=O)NC[C@@H](O)CO)c2cc[nH]c2n1 [GSK1392956A]
2. CCn1c(-c2nonc2N)nc2c(C#CC(C)(C)O)nc(OCCNC)cc21.Cl [GSK949675]
3. COc1ccc2c(-c3ccnc(Nc4cccc(OC(F)(F)F)c4)n3)cnn2n1 [GW810372X]
4. NS(=O)(=O)c1ccc(N/N=C2\C(=O)Nc3ccc(C(=O)NCCc4c[nH]cn4)cc32)cc1 [GW300660X]
5. COc1cc2ncn(-c3cc(O[C@H](C)c4ccccc4Cl)c(C(N)=O)s3)c2cc1OC [GSK237701A]

Result:
1: 100; 2: 73; 3: 85; 4: 95; 5: 12
